# tested.target: Lysine-specific demethylase 4A (Homo sapiens)
# Sequence (O75164 whole entry): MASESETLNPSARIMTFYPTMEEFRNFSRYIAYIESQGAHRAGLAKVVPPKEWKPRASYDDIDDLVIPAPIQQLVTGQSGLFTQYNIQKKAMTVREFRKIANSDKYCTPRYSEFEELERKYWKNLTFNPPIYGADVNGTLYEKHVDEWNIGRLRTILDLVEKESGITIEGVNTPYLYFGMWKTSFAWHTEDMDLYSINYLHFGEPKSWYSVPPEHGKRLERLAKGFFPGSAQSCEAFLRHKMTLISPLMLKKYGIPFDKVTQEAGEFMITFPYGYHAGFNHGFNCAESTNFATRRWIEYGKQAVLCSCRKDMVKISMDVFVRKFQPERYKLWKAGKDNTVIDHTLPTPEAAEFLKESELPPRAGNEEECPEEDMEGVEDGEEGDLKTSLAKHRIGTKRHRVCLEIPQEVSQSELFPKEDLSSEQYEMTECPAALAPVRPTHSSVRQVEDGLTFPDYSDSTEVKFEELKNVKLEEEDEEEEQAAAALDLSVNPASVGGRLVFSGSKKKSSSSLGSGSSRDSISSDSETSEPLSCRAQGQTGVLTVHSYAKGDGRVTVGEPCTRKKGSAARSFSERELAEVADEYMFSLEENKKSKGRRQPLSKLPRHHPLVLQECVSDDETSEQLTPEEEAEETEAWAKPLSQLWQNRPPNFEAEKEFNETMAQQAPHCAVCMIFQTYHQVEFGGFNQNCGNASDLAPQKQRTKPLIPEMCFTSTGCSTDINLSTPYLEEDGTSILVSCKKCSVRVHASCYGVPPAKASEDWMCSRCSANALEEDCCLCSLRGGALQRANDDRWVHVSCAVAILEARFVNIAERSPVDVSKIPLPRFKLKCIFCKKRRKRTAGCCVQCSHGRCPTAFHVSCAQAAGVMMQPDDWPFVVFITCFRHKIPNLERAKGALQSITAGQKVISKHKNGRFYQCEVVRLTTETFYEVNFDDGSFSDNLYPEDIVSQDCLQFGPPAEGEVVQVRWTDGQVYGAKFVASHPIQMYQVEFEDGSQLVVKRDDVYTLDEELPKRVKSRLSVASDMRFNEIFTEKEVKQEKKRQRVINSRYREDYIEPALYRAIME
# test.summary: Inhibition of human JmjD2a using H3K27(me3) as substrate preincubated for 10 mins followed by substrate addition and measured after 7 mins in presence of alpha-KG by RapidFire Mass Spectrometry
measurement.name: IC50

1. O=C(O)CCNc1cc(N2CCc3ccccc3CC2)nc(-c2ccccn2)n1	> 100 µM

====

# tested.target: Lysine-specific demethylase 5C (Homo sapiens)
measurement.name: IC50

1) O=C(O)CCNc1cc(N2CCc3ccccc3CC2)nc(-c2ccccn2)n1	> 100 µM

====

# tested.target: Lysine-specific demethylase 4E (Homo sapiens, UniProt B2RXH2)
# Sequence (B2RXH2 whole entry): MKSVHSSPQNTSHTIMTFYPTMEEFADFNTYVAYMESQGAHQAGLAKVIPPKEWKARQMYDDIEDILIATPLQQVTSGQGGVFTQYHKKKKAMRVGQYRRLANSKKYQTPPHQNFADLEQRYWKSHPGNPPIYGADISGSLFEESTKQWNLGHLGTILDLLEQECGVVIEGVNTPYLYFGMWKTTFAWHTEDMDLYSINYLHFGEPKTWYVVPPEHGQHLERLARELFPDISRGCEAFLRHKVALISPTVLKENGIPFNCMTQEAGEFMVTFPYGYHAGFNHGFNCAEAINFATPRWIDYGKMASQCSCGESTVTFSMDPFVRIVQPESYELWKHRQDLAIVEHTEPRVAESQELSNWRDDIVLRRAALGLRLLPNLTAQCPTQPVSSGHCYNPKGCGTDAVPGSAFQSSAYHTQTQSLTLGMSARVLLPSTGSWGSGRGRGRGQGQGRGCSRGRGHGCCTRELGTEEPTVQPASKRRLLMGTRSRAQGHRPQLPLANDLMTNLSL
# test.summary: Inhibition of human JmjD2e using H3K27(me3) as substrate preincubated for 10 mins followed by substrate addition and measured after 7 mins in presence of alpha-KG by RapidFire Mass Spectrometry
measurement.name: IC50

1. O=C(O)CCNc1cc(N2CCc3ccccc3CC2)nc(-c2cccnc2)n1	> 100 µM

====

# tested.target: UniProt:O15550
# Sequence (O15550 whole entry): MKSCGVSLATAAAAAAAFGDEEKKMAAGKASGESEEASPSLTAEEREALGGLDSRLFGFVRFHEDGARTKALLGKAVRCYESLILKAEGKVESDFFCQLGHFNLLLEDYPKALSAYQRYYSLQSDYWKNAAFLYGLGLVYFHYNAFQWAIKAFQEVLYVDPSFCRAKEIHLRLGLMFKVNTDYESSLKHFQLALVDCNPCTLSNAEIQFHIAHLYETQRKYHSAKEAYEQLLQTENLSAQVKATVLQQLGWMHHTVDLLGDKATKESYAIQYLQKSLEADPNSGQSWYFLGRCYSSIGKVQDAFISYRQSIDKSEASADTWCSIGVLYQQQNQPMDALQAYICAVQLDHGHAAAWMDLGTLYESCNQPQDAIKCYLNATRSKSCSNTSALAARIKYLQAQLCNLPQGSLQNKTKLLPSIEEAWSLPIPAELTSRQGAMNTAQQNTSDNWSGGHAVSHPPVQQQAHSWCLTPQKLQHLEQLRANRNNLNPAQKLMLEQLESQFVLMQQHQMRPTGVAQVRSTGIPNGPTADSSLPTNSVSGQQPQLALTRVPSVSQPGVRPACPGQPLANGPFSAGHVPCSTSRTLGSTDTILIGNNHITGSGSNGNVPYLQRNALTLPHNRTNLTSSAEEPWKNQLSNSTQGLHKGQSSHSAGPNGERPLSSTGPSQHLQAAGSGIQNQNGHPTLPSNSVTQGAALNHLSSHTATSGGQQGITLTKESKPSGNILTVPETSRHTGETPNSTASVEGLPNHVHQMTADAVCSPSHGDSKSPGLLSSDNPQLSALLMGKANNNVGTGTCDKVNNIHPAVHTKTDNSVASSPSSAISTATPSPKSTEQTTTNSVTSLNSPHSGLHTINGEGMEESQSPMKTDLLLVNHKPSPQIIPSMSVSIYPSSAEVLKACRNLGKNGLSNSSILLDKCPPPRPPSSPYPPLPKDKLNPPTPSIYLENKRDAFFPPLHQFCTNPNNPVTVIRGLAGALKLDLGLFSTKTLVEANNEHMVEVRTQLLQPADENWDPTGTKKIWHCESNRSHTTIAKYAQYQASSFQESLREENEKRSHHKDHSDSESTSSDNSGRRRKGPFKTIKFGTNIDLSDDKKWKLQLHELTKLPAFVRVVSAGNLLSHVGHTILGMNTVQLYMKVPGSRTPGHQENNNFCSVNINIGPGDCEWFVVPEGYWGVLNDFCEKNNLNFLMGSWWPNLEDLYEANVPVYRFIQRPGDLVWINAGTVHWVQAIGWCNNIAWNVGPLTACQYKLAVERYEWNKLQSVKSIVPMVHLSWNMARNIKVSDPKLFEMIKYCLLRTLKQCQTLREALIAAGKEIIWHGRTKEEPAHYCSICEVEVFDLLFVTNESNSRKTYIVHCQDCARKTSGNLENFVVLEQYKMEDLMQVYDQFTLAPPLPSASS
measurement.name: IC50 (µM)

1. O=C(O)CCNc1cc(N2CCc3ccccc3CC2)nc(-c2ccccn2)n1	56

====

# tested.target: hERG (KCNH2) (Homo sapiens, UniProt Q12809)
# Sequence (Q12809 whole entry): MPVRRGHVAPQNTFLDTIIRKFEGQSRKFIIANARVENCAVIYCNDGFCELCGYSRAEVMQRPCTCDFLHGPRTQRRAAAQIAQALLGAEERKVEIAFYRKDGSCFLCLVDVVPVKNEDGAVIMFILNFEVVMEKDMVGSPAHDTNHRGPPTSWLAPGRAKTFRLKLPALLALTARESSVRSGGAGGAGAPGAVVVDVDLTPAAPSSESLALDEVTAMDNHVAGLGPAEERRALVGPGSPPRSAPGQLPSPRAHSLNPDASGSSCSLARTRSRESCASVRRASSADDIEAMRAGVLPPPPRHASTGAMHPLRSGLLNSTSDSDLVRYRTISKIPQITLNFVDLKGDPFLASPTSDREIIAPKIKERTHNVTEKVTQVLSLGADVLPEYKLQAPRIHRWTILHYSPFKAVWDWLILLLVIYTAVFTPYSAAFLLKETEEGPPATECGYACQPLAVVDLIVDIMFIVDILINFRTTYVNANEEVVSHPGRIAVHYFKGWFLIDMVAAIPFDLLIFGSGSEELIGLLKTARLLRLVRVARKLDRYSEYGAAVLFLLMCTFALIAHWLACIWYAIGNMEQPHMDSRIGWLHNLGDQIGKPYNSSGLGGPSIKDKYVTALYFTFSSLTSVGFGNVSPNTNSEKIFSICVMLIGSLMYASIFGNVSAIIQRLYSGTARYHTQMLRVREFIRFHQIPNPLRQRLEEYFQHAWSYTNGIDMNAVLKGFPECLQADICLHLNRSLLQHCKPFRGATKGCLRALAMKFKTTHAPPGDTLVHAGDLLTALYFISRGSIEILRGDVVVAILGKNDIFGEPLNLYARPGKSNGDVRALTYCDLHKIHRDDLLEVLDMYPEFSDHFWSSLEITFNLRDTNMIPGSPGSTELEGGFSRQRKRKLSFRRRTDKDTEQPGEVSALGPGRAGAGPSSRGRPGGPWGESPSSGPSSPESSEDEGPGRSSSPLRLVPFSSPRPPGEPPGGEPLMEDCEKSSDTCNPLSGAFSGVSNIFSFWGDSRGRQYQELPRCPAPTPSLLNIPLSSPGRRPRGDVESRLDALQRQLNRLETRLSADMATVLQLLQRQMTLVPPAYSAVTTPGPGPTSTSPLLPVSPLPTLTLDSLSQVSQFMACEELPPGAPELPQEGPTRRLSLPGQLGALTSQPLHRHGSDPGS
# test.summary: Binding affinity to human ERG by FP binding assay
# Type: toxicity
Quick list: XC50 per entry.
measurement.name: XC50

1. O=C(O)CCNc1cc(N2CCc3ccccc3CC2)nc(-c2ccccn2)n1	32 µM
2. O=C(O)CCNc1cc(N2CCc3ccccc3CC2)nc(-c2cccnc2)n1	> 100 µM

====

# tested.target: OATP1B1 (SLCO1B1) (Homo sapiens, UniProt Q9Y6L6)
# test.summary: Blockade of human OATP1B1 by imaging analysis
measurement.name: XC50 (µM)

1. O=C(O)CCNc1cc(N2CCc3ccccc3CC2)nc(-c2cccnc2)n1	20

====

# tested.target: Lysine-specific demethylase 4C (Homo sapiens, UniProt Q9H3R0)
# Sequence (Q9H3R0 whole entry): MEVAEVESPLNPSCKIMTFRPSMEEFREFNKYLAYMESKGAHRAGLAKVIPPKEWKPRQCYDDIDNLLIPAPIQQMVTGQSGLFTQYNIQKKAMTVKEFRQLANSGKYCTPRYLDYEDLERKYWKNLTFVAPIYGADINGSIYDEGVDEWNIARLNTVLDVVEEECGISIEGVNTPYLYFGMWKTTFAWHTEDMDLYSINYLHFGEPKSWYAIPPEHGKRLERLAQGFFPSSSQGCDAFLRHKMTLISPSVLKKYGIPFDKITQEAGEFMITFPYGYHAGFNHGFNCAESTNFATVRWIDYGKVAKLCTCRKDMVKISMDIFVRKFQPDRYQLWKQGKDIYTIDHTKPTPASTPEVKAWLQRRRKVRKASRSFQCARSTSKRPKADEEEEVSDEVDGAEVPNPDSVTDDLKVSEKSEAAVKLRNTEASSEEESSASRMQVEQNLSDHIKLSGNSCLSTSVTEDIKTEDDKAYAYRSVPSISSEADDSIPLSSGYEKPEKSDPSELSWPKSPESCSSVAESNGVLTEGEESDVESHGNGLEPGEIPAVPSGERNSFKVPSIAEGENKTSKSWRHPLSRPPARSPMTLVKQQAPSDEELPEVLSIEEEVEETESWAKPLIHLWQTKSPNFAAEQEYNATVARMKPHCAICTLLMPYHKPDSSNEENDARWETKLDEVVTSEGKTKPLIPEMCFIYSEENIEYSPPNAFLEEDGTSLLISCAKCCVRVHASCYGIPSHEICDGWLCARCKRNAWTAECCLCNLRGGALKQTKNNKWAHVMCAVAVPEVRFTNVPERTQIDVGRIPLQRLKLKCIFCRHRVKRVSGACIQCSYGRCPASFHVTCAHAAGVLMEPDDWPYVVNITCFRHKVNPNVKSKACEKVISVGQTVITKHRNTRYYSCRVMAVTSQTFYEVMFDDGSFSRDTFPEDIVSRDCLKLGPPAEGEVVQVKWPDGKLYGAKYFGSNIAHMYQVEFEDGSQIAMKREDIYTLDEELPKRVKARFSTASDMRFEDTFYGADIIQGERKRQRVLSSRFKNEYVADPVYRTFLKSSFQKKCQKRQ
# test.summary: Inhibition of human JmjD2c using H3K27(me3) as substrate preincubated for 10 mins followed by substrate addition and measured after 7 mins in presence of alpha-KG by RapidFire Mass Spectrometry
measurement.name: IC50

1) O=C(O)CCNc1cc(N2CCc3ccccc3CC2)nc(-c2ccccn2)n1	> 100 µM

====

# tested.target: PXR (NR1I2) (Homo sapiens)
# Sequence (O75469 whole entry): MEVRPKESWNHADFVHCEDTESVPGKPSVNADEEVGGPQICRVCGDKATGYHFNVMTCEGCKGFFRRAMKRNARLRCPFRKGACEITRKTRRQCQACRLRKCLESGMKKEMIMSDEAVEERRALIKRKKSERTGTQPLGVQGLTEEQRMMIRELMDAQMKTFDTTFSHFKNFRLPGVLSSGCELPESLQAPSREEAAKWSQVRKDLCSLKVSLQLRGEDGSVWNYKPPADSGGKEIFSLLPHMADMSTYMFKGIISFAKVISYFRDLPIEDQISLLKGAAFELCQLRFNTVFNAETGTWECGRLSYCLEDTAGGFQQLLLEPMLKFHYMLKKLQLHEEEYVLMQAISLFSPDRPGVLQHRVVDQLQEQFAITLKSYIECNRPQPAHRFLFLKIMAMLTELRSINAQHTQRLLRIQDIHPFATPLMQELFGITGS
# test.summary: Agonist activity at human PXR by luciferase reporter assay
measurement.name: XC50 (µM)

1) O=C(O)CCNc1cc(N2CCc3ccccc3CC2)nc(-c2cccnc2)n1	10
